Molecular target: recombinant ROR1 (Homo sapiens (Human), UniProt Q01973 30-406)
Sequence (Q01973 30-406 limits assumed): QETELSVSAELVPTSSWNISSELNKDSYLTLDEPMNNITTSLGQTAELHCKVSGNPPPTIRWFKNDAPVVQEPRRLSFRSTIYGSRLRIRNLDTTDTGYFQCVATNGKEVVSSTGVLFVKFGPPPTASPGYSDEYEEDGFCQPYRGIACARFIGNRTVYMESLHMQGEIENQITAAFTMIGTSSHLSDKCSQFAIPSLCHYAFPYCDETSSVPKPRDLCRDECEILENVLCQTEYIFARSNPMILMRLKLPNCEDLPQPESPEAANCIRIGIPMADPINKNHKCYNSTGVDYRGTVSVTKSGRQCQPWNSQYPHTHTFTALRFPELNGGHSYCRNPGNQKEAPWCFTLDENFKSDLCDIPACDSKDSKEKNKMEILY
Assay: dot blot on nylon membrane, anti-human IgG-HRP

>  <binder>
h6E6-055 (antibody, human IgG1, V domains shown, human IgG1; also called clone 55) VH: EVQLVESGGGLVKPGGSLRLSCAASGFTFSQYGHSWVRQAPGKGLEWVSTISSGGGYTHYAESVKGRFTISRDNAKNSLYLQMNSLRAEDTAVYYCARHPRDFSYAQDYWGQGTTVTVSS VL: EIVMTQSPATLSVSPGERATLSCKASQDVGHYLAWYQQKPGQAPRLLIYWASTRATGIPARFSGSGSGTEFTLTISSLQSEDFAVYYCQQYNIYPWTFGQGTKVEIK

>  <binding result>
no binding

$$$$
>  <binder>
h6E6-040 (antibody, human IgG1, V domains shown, human IgG1; also called clone 40) VH: EVQLVESGGGLVKPGGSLRLSCAASGFTFSSYGHSWVRQAPGKGLEWVSTISSGGGYTHYAPSVKGRFTISRDNAKNSLYLQMNSLRAEDTAVYYCARHPRDFSYAHDYWGQGTTVTVSS VL: EIVMTQSPATLSVSPGERATLSCRASQDVGHYVAWYQQKPGQAPRLLIYWASTRATGIPARFSGSGSGTEFTLTISSLQSEDFAVYYCQQYNIYPWTFGQGTKVEIK

>  <binding result>
no binding

$$$$
>  <binder>
h6E6-107 (antibody, human IgG1, V domains shown, human IgG1; also called clone 107) VH: EVQLVESGGGLVKPGGSLRLSCAASGFTFSTYGASWVRQAPGKGLEWVSTISSGGGYTHYAPSVKGRFTISRDNAKNSLYLQMNSLRAEDTAVYYCARHPRDFSYALDYWGQGTTVTVSS VL: EIVMTQSPATLSVSPGERATLSCKASQDVGHYVAWYQQKPGQAPRLLIYWASTRATGIPARFSGSGSGTEFTLTISSLQSEDFAVYYCQQYNIYPWTFGQGTKVEIK

>  <binding result>
no binding

$$$$
